So I've got a bunch of compounds here, and I need their GI50 values.
System: MDA-N
Experiment: NCI tumour cell line growth inhibition, 48 h
Activity calls are given as the source filed them. Cut-off read from the data, not from the text of the source: active = GI50 up to about 1.1 µM and inactive = higher.

CCOC(=O)c1ccc(/N=c2\oc3ccc(OC)cc3cc2-c2nc3ccccc3[nH]2)cc1
55 µM (inactive)
Cc1ccc(S(=O)(=O)NC(=O)NC(Cc2c[nH]c3ccccc23)C(=O)O)cc1 (stereo unspecified)
> 100 µM (inactive)
Cc1c([N+](=O)[O-])oc2ccc3ccccc3c12
26.9 µM (inactive)

Quick one: give me GI50 for each item below, same order please.
1. COc1ccc(/N=C\c2ccc(N(CCC#N)CCC#N)cc2)cc1
2. CC(C)(C)c1cc[n+](C[n+]2ccc(C(C)(C)C)cc2)cc1
3. O=C1C=CC(=O)c2c1ccc1c3ccccc3n(CCCCCCCCn3c4ccccc4c4ccc5c(c43)C(=O)C=CC5=O)c21

## Result
1: 63.8 µM (inactive); 2: > 100 µM (inactive); 3: > 100 µM (inactive)

List reported GI50 for each of these compounds:
1. COc1ccc(C2SC(=N)Nc3c2c(C)nn3C(=O)c2ccc(Cl)cc2)cc1OC (stereo unspecified)
2. CC(C)OP(=O)(OC(C)C)C(C(C)C)N(C)/C(N)=N\C1=NC(C(F)(F)F)(C(F)(F)F)N=C(C(C(F)(F)F)C(F)(F)F)O1 (stereo unspecified)
3. CC(C)c1cc(C(C)C)c(B(c2ccccc2)c2ccccc2)c(C(C)C)c1Br
4. COC(=O)C1=C(C(=O)OC)c2cc(OC)ccc2C(C(=S)N(C)C)S1 (stereo unspecified)
5. Cc1ccc(-[n+]2cc([O-])on2)cc1

## Result
> 10 µM (inactive)
2.14 µM (inactive)
> 100 µM (inactive)
> 100 µM (inactive)
> 100 µM (inactive)

* * *

System: SN12C
Experiment: NCI tumour cell line growth inhibition, 48 h
Active and inactive are the calls of the source. Rule as the data show it: active = GI50 up to about 1.1 µM and inactive = higher.
Pick one: True for active, False for inactive

A selection of reference data follows.
N#C/C(=C/Sc1ccccc1)C(=O)O
False
CN(C)c1ccc(/C=c2/c3ccccc3n3c2cc(C24CC5CC(CC(C5)C2)C4)[n+]3C)cc1
True
CO/C=C/c1cc2c(cc1C(OC)OC)OCO2
False
Cn1c(=O)nc2n(-c3ccc(Cl)c(C(F)(F)F)c3)c3ccccc3nc-2c1=O
False
C(=N\Nc1nnc(-c2nnc(N/N=C/c3ccccc3)o2)o1)/c1ccccc1
False
O=C1Nc2ccccc2/C1=C1\C(=O)Nc2ccccc21
False
Cc1ccc(-[n+]2cc([O-])on2)cc1
False
COc1c(C(C)C)cc2c3c1OC(=O)[C@@]31CCCC(C)(C)C1CC2 (some centres not stated)
False

## Task Entry NS(=O)(=O)c1nnc(NC(=O)c2cccc([N+](=O)[O-])c2)s1 : call = ?
## Result False

## Task Returns: the outcome recorded for CCC1C(C)c2c([nH]c3ccccc23)C2C(=O)N(c3ccccc3)C(=O)C21 (configuration not stated) in this assay.
## Result False

## Task Hey, what did the test say about CSC1=N/C(=C\c2ccccc2)C(=O)N1CN1CCCCC1 ?
## Result False

## Task Field: outcome | Entry: C/C(=N/NC(=S)N(C)CCc1ccccn1)c1cnccn1
## Result True

## Task Please state the recorded outcome for this compound: N=C(N)NS(=O)(=O)c1ccc(Nc2c3ccccc3nc3c(C(=O)Nc4ccc(S(N)(=O)=O)cc4)ccc(Cl)c23)cc1
## Result False

## Task In this assay, the call recorded for O=C(O)C(Cc1c[nH]cn1)N1C(=O)c2ccccc2C1=O (configuration not stated) was what?
## Result False
